- tgt: human Fc (human)
- assayDetails: ELISA; negative control
Recorded measurements of optical density, one per entry
Answer in OD, number only, no unit symbol.

Example binders with recorded optical density:
{"columns": ["binder", "optical density / OD"],
 "data": [
  ["374_H08 (antibody, V domains shown) VH: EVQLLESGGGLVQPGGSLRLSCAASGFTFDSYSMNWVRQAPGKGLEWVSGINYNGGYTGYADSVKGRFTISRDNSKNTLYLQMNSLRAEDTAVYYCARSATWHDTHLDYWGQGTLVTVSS VL: DIQMTQSPSSLSASVGDRVTITCRASQSILSYLNWYQQKPGKAPKLLIYAATSLHSGVPSRFSGSGSGTDFTLTISSLQPEDFATYYCQQSYENPLTFGGGTKVEIK", 0.199],
  ["369_G07 (antibody, V domains shown) VH: EVQLLESGGGLVQPGGSLRLSCAASGFTFSSYSMNWVRQAPGKGLEWVAGINYNGGYTSYADSVKGRFTISRDNSKNTLYLQMNSLRAEDTAVYYCARSATWHDTHLDYWGQGTLVTVSS VL: DIQMTQSPSSLSASVGDRVTITCRASQSILTYVNWYQQKPGKAPKLVIYAATSRASGVPSRFSGSGSGTDFTLTISSLQPEDFATYYCQQSYDNPLTFGGGTKVEIK", 0.32],
  ["376_D05 (antibody, V domains shown) VH: EVQLLESGGGLVQPGGSLRLSCAASGFTFSSYSMNWVRQAPGKGLEWVSNINYNGGYKGYADSVKGRFTISRDNSKNTLYLQMNSLRAEDTAVYYCARSANWHDTALDYWGQGTLVTVSS VL: DIQMTQSPSSLSASVGDRVTITCRASQSIVSYVNWYQQKPGKAPKLLIYAATSLASGVPSRFSGSGSGTDFTLTISSLQPEDFATYYCQQSYDTPLTFGGGTKVEIK", 0.215],
  ["375_D05 (antibody, V domains shown) VH: EVQLLESGGGLVQPGGSLRLSCAASGFTFSSYSMNWVRQAPGKGLEWVASINYNSGYTSYADSVKGRFTISRDNSKNTLYLQMNSLRAEDTAVYYCARSANWHDTHLDYWGQGTLVTVSS VL: DIQMTQSPSSLSASVGDRVTITCRASQSIVSYLNWYQQKPGKAPKLLIYAATSLHSGVPSRFSGSGSGTDFTLTISSLQPEDFATYYCQQSYDTPLTFGGGTKVEIK", 0.202]
]}

Now look at this one.
**Q:** For the binder 370_C04 (antibody, V domains shown) VH: EVQLLESGGGLVQPGGSLRLSCAASGFTFSSYGMNWVRQAPGKGLEWVASINYNSGYTSYADSVKGRFTISRDNSKNTLYLQMNSLRAEDTAVYYCARSATWHDTHLDYWGQGTLVTVSS VL: DIQMTQSPSSLSASVGDRVTITCRASQSILSYLNWYQQKPGKAPKLLIYAASSLQSGVPSRFSGSGSGTDFTLTISSLQPEDFATYYCQQSYENPLTFGGGTKVEIK , what optical density is on record?
**A:** 0.334

Each recorded value in this set is attributed to patent US20210380703A1.
